In this section, each of the compounds is paired with its reported OX2R agonist activity (3 μM, %).
- study_target: human orexin type 2 receptor (hOX2R) (Homo sapiens)
- Construct: expressed in transfected cells
- Sequence (O43614 whole entry): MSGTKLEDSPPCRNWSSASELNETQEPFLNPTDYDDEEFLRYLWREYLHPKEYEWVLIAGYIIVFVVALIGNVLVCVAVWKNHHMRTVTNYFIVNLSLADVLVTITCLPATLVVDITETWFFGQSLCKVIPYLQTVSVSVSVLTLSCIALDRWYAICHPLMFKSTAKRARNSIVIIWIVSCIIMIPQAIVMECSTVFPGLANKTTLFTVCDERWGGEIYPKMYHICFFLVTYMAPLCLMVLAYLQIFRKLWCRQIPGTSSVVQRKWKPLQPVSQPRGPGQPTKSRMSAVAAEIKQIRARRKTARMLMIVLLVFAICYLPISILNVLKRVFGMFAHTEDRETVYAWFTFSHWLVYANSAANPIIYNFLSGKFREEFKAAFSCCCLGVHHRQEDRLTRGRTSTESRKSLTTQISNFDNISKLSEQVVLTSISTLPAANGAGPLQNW
- assay_method_text: Measurement of orexin type 2 receptor agonist activity (Fluo-4 calcium fluorescence, CHO cells forcibly expressing human OX2 receptor)
- Format: cell-based
- stated_conditions: test compound 3 μM, DMSO = 0%, orexin A (human) 10 nM = 100%
Only the number, expressed in %, is required.

# compound, units_of_measure, OX2R agonist activity (3 μM, %)
data = [
    ("CCc1cccc(C)c1C(=O)N1C[C@@H](OC)[C@H](Oc2cccc(CS(=O)(=O)N(C)C3CCOCC3)c2)C1 (relative stereo) [Example 155]", "%", 108),
    ("CCc1cccc(C)c1C(=O)N1C[C@@H](OC)[C@H](Oc2cccc(NS(=O)(=O)N3CC4CC4C3)c2)C1 (stereo partly drawn) [Example 134]", "%", 108),
    ("COc1cccc(C)c1C(=O)N1C[C@@H](OC)[C@H](Oc2cccc(NS(=O)(=O)N(C)C)c2)C1 [Example 135]", "%", 90),
    ("CO[C@@H]1CN(C(=O)c2cc(C)ccc2C)C[C@H]1Oc1cccc(CS(=O)(=O)N2CCC[C@H]2c2ccccn2)c1 [Example 57]", "%", 55),
    ("CO[C@@H]1CN(C(=O)c2cc(C)ccc2C)C[C@H]1Oc1cccc(CS(=O)(=O)N2CCC23CCOC3)c1 (relative stereo) [Example 19]", "%", 67),
]

Okay, next one:
[in] Which measured OX2R agonist activity (3 μM, %) value corresponds to CO[C@@H]1CN(C(=O)c2ccccc2C2CC2)C[C@H]1Oc1cccc(CS(=O)(=O)N(C)C2CCOCC2)c1 (relative stereo) [Example 153] ?
[out] 105

====

- study_target: human orexin type 2 receptor (hOX2R) (Homo sapiens)
- Construct: expressed in transfected cells
- assay_method_text: Measurement of orexin type 2 receptor agonist activity (Fluo-4 calcium fluorescence, CHO cells forcibly expressing human OX2 receptor)
- Assay type: cell-based
- stated_conditions: test compound 3 μM, DMSO = 0%, orexin A (human) 10 nM = 100%
value_kind: OX2R agonist activity (3 μM, %)
Express your answer in %, writing the number without its unit.

These recorded examples may help you get a feel for the data.
# molecule, study_target, result_number
records = [
    ("COC1CN(C(=O)c2cc(C)ccc2C)CC1Oc1cc(NS(=O)(=O)N2C[C@@H]3C[C@H]3C2)cc(C)n1 (relative stereo) [Example 117]", "human orexin type 2 receptor (hOX2R) (Homo sapiens)", 93),
    ("COC1CN(C(=O)c2cc(C)ccc2C)CC1Oc1cccc(NS(=O)(=O)N2C[C@@H]3CC[C@@H](C2)O3)c1 (relative stereo) [Example 80]", "human orexin type 2 receptor (hOX2R) (Homo sapiens)", 94),
    ("CCc1ccc(C)c(C(=O)N2C[C@@H](OC)[C@H](Oc3cccc(CS(=O)(=O)N(C)C4CCOCC4)c3)C2)c1OC (relative stereo) [Example 164]", "human orexin type 2 receptor (hOX2R) (Homo sapiens)", 86),
    ("COc1ccc(Cl)cc1C(=O)N1C[C@@H](OC)[C@H](Oc2cccc(CS(=O)(=O)N3CCCC3c3ccccn3)c2)C1 (relative stereo) [Example 108]", "human orexin type 2 receptor (hOX2R) (Homo sapiens)", 74),
    ("CO[C@@H]1CN(C(=O)c2cc(C)ccc2C)C[C@H]1Oc1cccc(CS(=O)(=O)N2CCC23CCOCC3)c1 (relative stereo) [Example 21]", "human orexin type 2 receptor (hOX2R) (Homo sapiens)", 70),
    ("CCc1cccc(C)c1C(=O)N1C[C@@H](OC)[C@H](Oc2cccc(CS(=O)(=O)N(C)C3CCOC(C)(C)C3)c2)C1 (relative stereo) [Example 140]", "human orexin type 2 receptor (hOX2R) (Homo sapiens)", 109),
    ("COc1ccc(C)c(C)c1C(=O)N1C[C@@H](OC)[C@H](Oc2cccc(CS(=O)(=O)N(C)C3CCOCC3)c2)C1 (relative stereo) [Example 162]", "human orexin type 2 receptor (hOX2R) (Homo sapiens)", 96),
    ("CO[C@@H]1CN(C(=O)c2cc(C)ccc2C)C[C@H]1Oc1cccc(CS(=O)(=O)N2CCCC2c2cccnc2C)c1 (relative stereo) [Example 114]", "human orexin type 2 receptor (hOX2R) (Homo sapiens)", 100),
]

[in] What value of OX2R agonist activity (3 μM, %) has been reported for the following molecule? COC1CN(C(=O)c2cc(C)ccc2C)CC1Oc1cccc(CS(=O)(=O)N2CCCC2c2ccccc2C)c1 (centres unmarked) [Example 41]
[out] 75

[in] What OX2R agonist activity (3 μM, %) value was documented for this molecule, COc1cccc(C)c1C(=O)N1C[C@@H](OC)[C@H](Oc2cccc(CS(=O)(=O)N3CCCC3c3ccccn3)c2)C1 (relative stereo) [Example 119] ?
[out] 100

[in] Could you tell me which OX2R agonist activity (3 μM, %) is on file for CO[C@@H]1CN(C(=O)c2c(C)cccc2C2CC2)C[C@H]1Oc1cccc(NS(=O)(=O)N(C)C2CCOCC2)c1 (relative stereo) [Example 165] ?
[out] 108
